# Measurement description: Tmax in Sprague-Dawley rat at 30 mg/kg, po by LC/MS/MS analysis
# Assay type: ADME, organism-based
# Details: in vivo
Reported property: Tmax (min)

- CNCCOc1ccc(-c2sc3nc(-c4cccs4)nc(NN4C(=O)C=C(C)C4=O)c3c2C)cc1.Cl: 15

* * *

# Measurement description: cells
# Details: Homo sapiens, HL-60, 48 h
# Description: Growth inhibition of human HL60 cells expressing wild type FLT-3 after 48 hrs by XTT assay
Returns: string. Value is t if measured GI50 is below 0.4 µM, and f if it is greater than or equal to it.

- CNCCOc1ccc(-c2sc3nc(-c4cccs4)nc(NN4C(=O)C=C(C)C4=O)c3c2C)cc1.Cl: t
- CC1=CC(=O)N(Nc2nc(-c3cccs3)nc3sc(-c4ccc(OC5CCNC5)cc4)c(C)c23)C1=O (stereo not given): t
- CC1=CC(=O)N(Nc2nc(-c3cccs3)nc3sc(C)c(C)c23)C1=O: t
- CC1=CC(=O)N(Nc2nc(-c3cccs3)nc3sc(-c4ccc(OCCNCC(C)C)cc4)c(C)c23)C1=O: f
- CC1=CC(=O)N(Nc2nc(-c3cccs3)nc3sc(-c4ccc(OC5CCNCC5)cc4)c(C)c23)C1=O: t
- CC1=CC(=O)N(Nc2nc(-c3cccs3)nc3sc(C)cc23)C1=O: f
- CC1=CC(=O)N(Nc2nc(-c3cccs3)nc3sc(-c4ccc(O)cc4)cc23)C1=O: t
- CC1=CC(=O)N(Nc2nc(-c3cccs3)nc3sc(-c4ccc(OCCNCCO)cc4)c(C)c23)C1=O.Cl: f
- COc1ccc(-c2cc3c(NN4C(=O)C=C(C)C4=O)nc(-c4cccs4)nc3s2)cc1: f
- CC1=CC(=O)N(Nc2nc(-c3cccs3)nc3sc(-c4ccc(OCCN5CCCC5)cc4)c(C)c23)C1=O: f

* * *

# Assayed target: Receptor-type tyrosine-protein kinase FLT3 (Homo sapiens)
# Sequence (P36888 whole entry): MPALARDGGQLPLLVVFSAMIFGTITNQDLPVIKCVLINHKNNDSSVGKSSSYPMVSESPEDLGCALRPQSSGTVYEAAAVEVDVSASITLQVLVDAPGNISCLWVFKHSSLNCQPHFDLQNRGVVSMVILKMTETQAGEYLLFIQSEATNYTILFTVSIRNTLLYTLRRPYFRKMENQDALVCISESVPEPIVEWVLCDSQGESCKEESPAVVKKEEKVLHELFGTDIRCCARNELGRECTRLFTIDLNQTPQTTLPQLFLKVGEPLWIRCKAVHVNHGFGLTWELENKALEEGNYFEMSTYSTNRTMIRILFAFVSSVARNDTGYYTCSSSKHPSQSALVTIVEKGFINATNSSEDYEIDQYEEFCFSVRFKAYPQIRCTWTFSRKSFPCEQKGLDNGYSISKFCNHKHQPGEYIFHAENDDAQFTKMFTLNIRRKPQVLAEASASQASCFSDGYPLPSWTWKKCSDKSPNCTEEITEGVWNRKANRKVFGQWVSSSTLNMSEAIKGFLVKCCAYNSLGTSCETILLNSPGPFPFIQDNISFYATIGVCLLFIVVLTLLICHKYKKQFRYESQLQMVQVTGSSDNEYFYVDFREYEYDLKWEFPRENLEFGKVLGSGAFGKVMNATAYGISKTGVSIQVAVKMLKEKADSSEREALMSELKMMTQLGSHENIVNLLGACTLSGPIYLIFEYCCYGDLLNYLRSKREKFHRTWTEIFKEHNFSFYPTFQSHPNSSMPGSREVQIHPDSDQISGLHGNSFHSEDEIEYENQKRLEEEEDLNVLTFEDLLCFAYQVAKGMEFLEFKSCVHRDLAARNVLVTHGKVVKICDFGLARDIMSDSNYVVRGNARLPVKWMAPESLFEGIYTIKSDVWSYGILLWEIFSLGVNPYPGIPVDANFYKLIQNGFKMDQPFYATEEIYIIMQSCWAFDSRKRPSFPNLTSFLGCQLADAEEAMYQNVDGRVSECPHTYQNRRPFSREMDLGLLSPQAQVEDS
# Measurement description: biochemical
# Description: Inhibition of recombinant human FLT3 expressed in insect Sf21 cells preincubated for 15 mins followed by poly(Glu:Tyr) substrate addition for 30 mins in presence of [gamma-32P]ATP by TR-FRET assay
pIC50: −log10 of the molar value.
Attribute: pIC50
Reported property: pIC50

• COc1ccc(-c2cc3c(NN4C(=O)C=C(C)C4=O)nc(-c4cccs4)nc3s2)cc1 = 7.16
• CC1=CC(=O)N(Nc2nc(-c3cccs3)nc3sc(-c4ccc(F)cc4)cc23)C1=O = 6.91
• CC1=CC(=O)N(Nc2nc(-c3cccs3)nc3sc(-c4ccc(OCCNCC(C)C)cc4)c(C)c23)C1=O = 8.60
• CC1=CC(=O)N(Nc2nc(-c3cccs3)nc3sc(-c4ccc(OCCN5CCCC5)cc4)c(C)c23)C1=O = 8.19
• CC1=CC(=O)N(Nc2nc(-c3cccs3)nc3sc(-c4ccc(OC5CCNC5)cc4)c(C)c23)C1=O (stereo not given) = 8.42
